Test system: HCT-15 colon
Select the correct class. Options are 1 = active, 0 = inactive and nothing else.

Example cases with answers are listed next.
{"Compound": "CCN(CC)CC(C)(C)C(=O)/C=C/c1ccc(Cl)c(Cl)c1", "System Under Test": "HCT-15 colon", "Label Class": 0}
{"Compound": "Nc1c(C(=O)N/N=C/c2ccc(-c3ccc(Cl)cc3)o2)cnn1-c1ccnc2c(C(F)(F)F)cccc12", "System Under Test": "HCT-15 colon", "Label Class": 0}
{"Compound": "O=c1[nH]c2cc(Cl)ccc2n1C1CCN(CCCC(c2ccc(F)cc2)c2ccc(F)cc2)CC1", "System Under Test": "HCT-15 colon", "Label Class": 0}
{"Compound": "Cc1ccc(Nc2nc(N)c(C(=O)c3ccc(C#N)cc3)s2)cc1", "System Under Test": "HCT-15 colon", "Label Class": 1}

Query :: Can you look up the reported call for "CC(=O)O[C@@H]1C[C@]2(C(C)C)O[C@@]1(C)[C@@H]1CCC(C)=C1[C@@H]2OC(=O)/C=C/c1ccccc1" for me?
Result :: 0

Origin of the recorded values: PubChem BioAssay (NCI)
